The measured values listed here are drawn from paper PMC5700166.

- Target: GST-Dm-Relish (Drosophila melanogaster, UniProt Q94527 99-473)
- Sequence: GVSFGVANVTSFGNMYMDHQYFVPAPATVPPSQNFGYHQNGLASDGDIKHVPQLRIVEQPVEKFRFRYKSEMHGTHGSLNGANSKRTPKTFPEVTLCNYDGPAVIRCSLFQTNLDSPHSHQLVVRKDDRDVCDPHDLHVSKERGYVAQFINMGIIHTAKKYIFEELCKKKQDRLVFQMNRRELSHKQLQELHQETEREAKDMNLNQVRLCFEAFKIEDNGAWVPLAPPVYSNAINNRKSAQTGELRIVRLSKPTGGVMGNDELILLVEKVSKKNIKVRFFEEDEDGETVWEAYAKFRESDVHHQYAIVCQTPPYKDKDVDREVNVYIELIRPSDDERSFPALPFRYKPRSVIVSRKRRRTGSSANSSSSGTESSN
- Procedure details: protein-binding microarray (PBM); PBM: ~300 nM protein, 6 mM HEPES pH 7.8, 80 mM KCl, 0.5 mM EDTA, 0.5 mM EGTA, 6% glycerol, 35 ng/ul poly-dIdC, 1% milk, 1 h, room temperature; Ap Aiptasia and Nv Nematostella (sea anemones) / Co Capsaspora / Aq Amphimedon (sponge) / Dm Drosophila / Hu human; RHD is the Rel homology domain; high values mean tight binding
- Run parameters: dsDNA, one strand shown
Value kind: binding signal (z-score)
Give just the numeric value; z-score need not be written.

Exercise: Entry `CCGATTAACATCAAGGAAATTCCTGATGTTAATCGGGTCTTGATTCGCTTGACGCTGCTG` has what binding signal?
Key: 2.23

Exercise: Entry `CCGATTAACATCAGGATATTCCCTGATGTTAATCGGGTCTTGATTCGCTTGACGCTGCTG` has what binding signal?
Key: 3.37

Exercise: Entry `CCGATTAACATCAAATTCCCACATGATGTTAATCGGGTCTTGATTCGCTTGACGCTGCTG` has what binding signal?
Key: 4.42

Exercise: Entry `CCGATTAACATCAATTCCCCCCCTGATGTTAATCGGGTCTTGATTCGCTTGACGCTGCTG` has what binding signal?
Key: 6.09

Exercise: Entry `CCGATTAACATCAGGGGGAGTGATGATGTTAATCGGGTCTTGATTCGCTTGACGCTGCTG` has what binding signal?
Key: 1.66

Exercise: Entry `CCGATTAACATCAGGGACTTCCATGATGTTAATCGGGTCTTGATTCGCTTGACGCTGCTG` has what binding signal?
Key: 6.69

Exercise: Entry `CCGATTAACATCAGGGGGGCACCTGATGTTAATCGGGTCTTGATTCGCTTGACGCTGCTG` has what binding signal?
Key: 3.62

Exercise: Entry `CCGATTAACATCACCACCACCCCTGATGTTAATCGGGTCTTGATTCGCTTGACGCTGCTG` has what binding signal?
Key: 1.39

Exercise: Entry `CCGATTAACATCACGAAACCCCCTGATGTTAATCGGGTCTTGATTCGCTTGACGCTGCTG` has what binding signal?
Key: 8.51

Exercise: Entry `CCGATTAACATCAATAATTACCCTGATGTTAATCGGGTCTTGATTCGCTTGACGCTGCTG` has what binding signal?
Key: 3.09

Exercise: Entry `CCGATTAACATCACGGGGGAAACTGATGTTAATCGGGTCTTGATTCGCTTGACGCTGCTG` has what binding signal?
Key: 3.91

Exercise: Entry `CCGATTAACATCAGAAAAAACCCTGATGTTAATCGGGTCTTGATTCGCTTGACGCTGCTG` has what binding signal?
Key: 6.15

Exercise: Entry `CCGATTAACATCACGGGGGAATATGATGTTAATCGGGTCTTGATTCGCTTGACGCTGCTG` has what binding signal?
Key: 4.66

Exercise: Entry `CCGATTAACATCAGAAATTTCCCTGATGTTAATCGGGTCTTGATTCGCTTGACGCTGCTG` has what binding signal?
Key: 4.81

Exercise: Entry `CCGATTAACATCAGGGATGCCCATGATGTTAATCGGGTCTTGATTCGCTTGACGCTGCTG` has what binding signal?
Key: 6.66

Exercise: Entry `CCGATTAACATCAGGGAAAGTACTGATGTTAATCGGGTCTTGATTCGCTTGACGCTGCTG` has what binding signal?
Key: 8.65

Exercise: Entry `CCGATTAACATCACCCTTTCCCCTGATGTTAATCGGGTCTTGATTCGCTTGACGCTGCTG` has what binding signal?
Key: 1.82

Exercise: Entry `CCGATTAACATCAGTAATCCCCATGATGTTAATCGGGTCTTGATTCGCTTGACGCTGCTG` has what binding signal?
Key: 6.04
